# Assay Info: Cytotoxicity against human HEp-2 cells assessed as reduction in cell viability incubated for 40 to 60 mins by resazurin dye based assay
# Particulars: time 40-60 min
CC50 reference
Numbers only here, please. The scale is µg/mL.

Compound	Unit Of Measurement	Reading
CC(=O)O.C[C@@H]1[C@H](O)[C@@H](C)/C=C/C=C/CC/C=C/C=C/C=C/C=C/[C@H](O[C@@H]2O[C@H](C)[C@@H](O)[C@H](N)[C@@H]2O)C[C@@H]2O[C@](O)(C[C@@H](O)[C@H](O)CC[C@@H](O)C[C@@H](O)C[C@@H](O)CC(=O)O[C@H]1C)C[C@H](O)[C@H]2C(=O)NCCO	µg/mL	149

Proceeding to the next compound to report its CC50.
Entry C[C@@H]1[C@H](O)[C@@H](C)/C=C/C=C/C=C/C=C/C=C/C=C/C=C/[C@H](O[C@@H]2O[C@H](C)[C@@H](O)[C@H](N)[C@@H]2O)C[C@@H]2O[C@](O)(C[C@@H](O)C[C@@H](O)[C@H](O)CC[C@@H](O)C[C@@H](O)CC(=O)O[C@H]1C)C[C@H](O)[C@H]2C(=O)O [AMPHOTERICIN B] — recorded CC50 = 87

###

Reported MIC values are given for each entry in this list.
# Test system: Candida albicans
# Assay Info: Antifungal activity against Candida albicans ATCC 10231 assessed as reduction in fungal growth incubated overnight by broth dilution method
# Assay type: functional
Lab book: enter the figure in µg/mL, no units written.

Smiles String	Study Target	Unit Of Measurement	MIC
C[C@@H]1[C@H](O)[C@@H](C)/C=C/C=C/C=C/C=C/C=C/C=C/C=C/[C@H](O[C@@H]2O[C@H](C)[C@@H](O)[C@H](N)[C@@H]2O)C[C@@H]2O[C@](O)(C[C@@H](O)C[C@@H](O)[C@H](O)CC[C@@H](O)C[C@@H](O)CC(=O)O[C@H]1C)C[C@H](O)[C@H]2C(=O)O	Candida albicans	µg/mL	5

Item: "CC(=O)O.C[C@@H]1[C@H](O)[C@@H](C)/C=C/C=C/CC/C=C/C=C/C=C/C=C/[C@H](O[C@@H]2O[C@H](C)[C@@H](O)[C@H](N)[C@@H]2O)C[C@@H]2O[C@](O)(C[C@@H](O)[C@H](O)CC[C@@H](O)C[C@@H](O)C[C@@H](O)CC(=O)O[C@H]1C)C[C@H](O)[C@H]2C(=O)NCCO" | MIC: 5

###

# Assay Info: Protein binding in human plasma at 0.5 mg/ml measured after 24 hrs by RP-HPLC analysis relative to control
# Assay type: ADME, cell-free
# Particulars: read-out: PPB (converted)
Metric: fraction unbound at 24 h, 0.5 mg/ml
# output: bare number, no unit

Form: compound = "CC(=O)O.C[C@@H]1[C@H](O)[C@@H](C)/C=C/C=C/CC/C=C/C=C/C=C/C=C/[C@H](O[C@@H]2O[C@H](C)[C@@H](O)[C@H](N)[C@@H]2O)C[C@@H]2O[C@](O)(C[C@@H](O)[C@H](O)CC[C@@H](O)C[C@@H](O)C[C@@H](O)CC(=O)O[C@H]1C)C[C@H](O)[C@H]2C(=O)NCCO" ; fraction unbound at 24 h, 0.5 mg/ml = 0.34

###

# Assay Info: Protein binding in human plasma assessed as free fraction at 0.1 mg/ml measured after 48 hrs by RP-HPLC analysis relative to control
# Assay type: ADME, cell-free
Metric: fraction unbound at 48 h, 0.1 mg/ml
Quick one: just the number, no unit, thanks!

// sample "CC(=O)O.C[C@@H]1[C@H](O)[C@@H](C)/C=C/C=C/CC/C=C/C=C/C=C/C=C/[C@H](O[C@@H]2O[C@H](C)[C@@H](O)[C@H](N)[C@@H]2O)C[C@@H]2O[C@](O)(C[C@@H](O)[C@H](O)CC[C@@H](O)C[C@@H](O)C[C@@H](O)CC(=O)O[C@H]1C)C[C@H](O)[C@H]2C(=O)NCCO" , its fraction unbound at 48 h, 0.1 mg/ml was 0.3
